Test system: Aerobactin synthetase IucA (Klebsiella pneumoniae hvKP1)
Experiment: Biochemical IucA enzyme inhibition primary screen of the Spectrum library (AID 1346200);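 further: 100% = wells without compound and 0% = wells lacking enzyme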
Details: malachite green pyrophosphate, A620, at 8 µM, active compounds read low
resultType: activity remaining (%)
Please state the figure in %; there is no need to write the unit.

>>> df
                                   molecule          resulttype  testvalue
0  COc1cc2c3cc1Oc1c(OC)c(OC)cc4c1[C@@H](Cc1cccc(c1)Oc1ccc(c(O)c1)C[C@@H]3N(C)CC2)N(C)CC4  activity remaining        112
1  COC1CC(O[C@H]2CC[C@]3(C=O)C4CC[C@]5(C)C(C6=CC(=O)OC6)CC[C@]5(O)C4CC[C@]3(O)C2)OC(C)C1O (stereo not given in full)  activity remaining        117
2  COc1ccc(CCN2CCC(Nc3nc4ccccc4n3Cc3ccc(F)cc3)CC2)cc1  activity remaining        124
3  C#CCCCCCCCCCCCC(O)CC(O)CO (stereo not given)  activity remaining       98.4

Let us examine a further case.
**Query** Requested read-out: activity remaining. Entry: C=C1C(=O)OC2CC1C(OC(C)=O)C/C(C)=C/CC/C(C)=C/CC[C@]2(C)O (stereo not given in full)
**Result** 123
